Where do the numbers come from? From patent US20100135997A1.

target.desc: T1, HLA-A*0201 loaded with the Carcinoembryonic antigen (CEA)-derived … peptide (biotin on the C-terminal biotinylation tag)
T1 construct: Soluble, biotinylated, immobilised on a streptavidin chip
experimental.details: Biacore SPR
quantity: koff

[
  {
    "binder": "SEQ ID NO 73 (receptor, mutated soluble two domain ILT-2) MGHLPKPTLWAEPGSVITQGSPVTLRCQGGQETQEYRLYREKKTAPWITRIPQELVKKGQFPIPSITWEHAGRYRCMQYTLTAGRSESSDPLELVVTGVYIKPTLSAQPSPVVNSGGNVTLQCDSQVAFDGFILCKEGEDEHPQCLNSQPHARGSSRAIFSVGPVSPSRRWWYRCYAYDSNSPYEWSLPSDLLELLVL",
    "koff": "≤ 2 s⁻¹"
  }
]

Ask | Could you share which koff value was measured for SEQ ID NO 88 (receptor, mutated soluble two domain ILT-2) MGHLPKPTLWAEPGSVITVGQPVTLRCQGGQETQEYRLYREKKTAPWITRIPQELVKKGQFPIPSITWEHAGRYRCYYGSDTAGRSESSDPLELVVTGVYIKPTLSAQPSPVVNSGGNVTLQCDSQVAFDGFILCKEGEDEHPQCLNSQPHARGSSRAIFSVGPVSPGRRWWYRCYAYDSNSPYEWSLPSDLLELLVL ?
Reply | ≤ 2 s⁻¹

Ask | Could you share which koff value was measured for SEQ ID NO 98 (receptor, mutated soluble two domain ILT-2) MGHLPKPTLWAEPGSVITQGSPVTLRCQGGQETQEYRLYREKKTAPWITRIPQELVKKGQFPIPSITWEHAGRYRCYYGSDTAGRSESSDPLELVVTGIYQRPTLSAQPSPVVNSGGNVTLQCDSQVAFDGFILCKEGEDEHPQCLNSQPHARGSSRAIFSVGPVSPGRRWWYRCYAYDSNSPYEWSLPSDLLELLVL ?
Reply | ≤ 2 s⁻¹
